Quick reference: remaining activity at 1 µM of the listed items.
systemUnderTest: Tau P301L (Homo sapiens, UniProt P10636, P618L)
Construct: expressed in transfected cells
Sequence (P10636 1-441 isoform P10636-8 P301L): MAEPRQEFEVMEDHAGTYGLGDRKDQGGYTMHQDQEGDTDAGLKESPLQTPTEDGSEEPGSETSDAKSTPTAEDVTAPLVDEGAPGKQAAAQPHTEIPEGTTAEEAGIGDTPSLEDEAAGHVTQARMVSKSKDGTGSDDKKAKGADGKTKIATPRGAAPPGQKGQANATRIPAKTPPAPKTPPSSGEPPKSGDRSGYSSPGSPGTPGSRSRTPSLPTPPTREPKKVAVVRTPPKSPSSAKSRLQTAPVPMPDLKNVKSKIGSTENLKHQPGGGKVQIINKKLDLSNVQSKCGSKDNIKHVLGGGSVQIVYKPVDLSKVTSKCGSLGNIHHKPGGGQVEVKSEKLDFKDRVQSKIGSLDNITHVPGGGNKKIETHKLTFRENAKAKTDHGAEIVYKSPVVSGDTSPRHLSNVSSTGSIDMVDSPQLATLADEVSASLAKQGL
assayComment: In vitro tau degradation assay in CHOK1 Tau P301L cells (sarkosyl insoluble tau, WES)
Type: cell-based
details: CHO-K1; remaining tau protein in sarkosyl insoluble pellet; CHOK1 Tau P301L cells treated 48 hours with test compound at 1 μM, doxycycline removed for the last 24 hours; relative to DMSO doxycycline control; read-out: Tau Protein Degradation effect at 1 μM
Where a name gives a salt, the structure may show the parent alone.

compound	systemUnderTest	endpointValue
O=C1CCC(N2C(=O)c3ccc(OCCCCCN4CCC(OC5CN(c6ccc(-c7ccn8c(n7)nc7ccccc78)cn6)C5)CC4)cc3C2=O)C(=O)N1 (centres unmarked) [Compound 450, formate]	Tau P301L (Homo sapiens, UniProt P10636, P618L)	< 50%
O=C1CCC(N2Cc3cc(N4CCN(CCC5CCN(c6ncc(-c7ccc8c9cnccc9n(C(F)F)c8c7)cc6C(F)(F)F)CC5)CC4)ccc3C2=O)C(=O)N1 (centres unmarked) [Compound 543]	Tau P301L (Homo sapiens, UniProt P10636, P618L)	< 50%
N#Cc1cc(-c2ccc3c4cnccc4n(C(F)F)c3c2)cnc1N1CCC(CCN2CCN(c3ccc4c(c3)C(=O)N(C3CCC(=O)NC3=O)C4=O)CC2)CC1 (centres unmarked) [Compound 454]	Tau P301L (Homo sapiens, UniProt P10636, P618L)	< 50%
Cn1c2ccncc2c2ccc(-c3ccc(O[C@H]4C[C@H](Oc5ccc(C#CCNCCCc6ccc7c(c6)CN(C6CCC(=O)NC6=O)C7=O)nc5)C4)nc3)cc21 (some centres unmarked) [Compound 346]	Tau P301L (Homo sapiens, UniProt P10636, P618L)	> 50%

INPUT: Tell me remaining activity at 1 µM of O=C1CCC(N2C(=O)c3ccc(N4CCN(CCC5CCN(c6ncc(-c7ccc8c9cnccc9n(C(F)F)c8n7)cc6F)CC5)CC4)cc3C2=O)C(=O)N1 (centres unmarked) [Compound 674] when tested on Tau P301L (Homo sapiens, UniProt P10636, P618L).
OUTPUT: < 50%

###

systemUnderTest: Tau P301L (Homo sapiens, UniProt P10636, P618L)
Construct: expressed in transfected cells
assayComment: In vitro tau degradation assay in CHOK1 Tau P301L cells (sarkosyl insoluble tau, WES)
Format: cell-based
details: CHO-K1; remaining tau protein in sarkosyl insoluble pellet; CHOK1 Tau P301L cells treated 48 hours with test compound at 1 μM, doxycycline removed for the last 24 hours; relative to DMSO doxycycline control; read-out: Tau Protein Degradation effect at 1 μM
metric: remaining activity at 1 µM

Solved entries:
compound	remaining activity at 1 µM
Cn1c2ccncc2c2ccc(-c3ccc(O[C@H]4C[C@H](CN5CC6(CN(CCOc7ccc8c(c7)C(=O)N(C7CCC(=O)NC7=O)C8=O)C6)C5)C4)nc3)cc21 (some centres unmarked) [Compound 386, diformate]	< 50%
O=C1CCC(N2C(=O)c3ccc(OCCN4CC5(C4)CN(C[C@H]4C[C@H](Oc6ccc(-c7ccn8c(n7)nc7ccccc78)cn6)C4)C5)cc3C2=O)C(=O)N1 (some centres unmarked) [Compound 473]	< 50%

INPUT: Return value of remaining activity at 1 µM for input Cc1ncsc1-c1ccc([C@H](C)NC(=O)[C@@H]2C[C@@H](O)CN2C(=O)[C@@H](NC(=O)COCCOCCOCCOCCOCCOc2cc3ccn(-c4cc5c(N)cccc5cn4)c3cn2)C(C)(C)C)cc1 [Compound 351] , no commentary.
OUTPUT: > 50%

INPUT: Supply remaining activity at 1 µM value. Item: O=C1CCC(N2C(=O)c3ccc(N4CCN(CCC5CCN(c6ncc(-c7ccc8c9cnccc9n(CC(F)(F)F)c8n7)cc6F)CC5)CC4)cc3C2=O)C(=O)N1 (centres unmarked) [Compound 673]
OUTPUT: < 50%

INPUT: Please supply the value of reported remaining activity at 1 µM for the item Cn1c2ccncc2c2ccc(-c3ccc(OC4CN(C5CCN(CCCCCOc6ccc7c(c6)C(=O)N(C6CCC(=O)NC6=O)C7=O)CC5)C4)nc3)cc21 (centres unmarked) [Compound 424]
OUTPUT: > 50%
